All values here come from the NIST ThermoML archive (doi:10.1016/j.fluid.2007.06.008).

details: Liquid; Ebulliometric method (Recirculating still)
Field: Normal boiling temperature. Provide a value for each of the compounds that follow.
# number only, unit °C dropped from output

Query: Which Normal boiling temperature value belongs to CCO ?
Response: 78.26

Query: Param item: CC(C)(C)O
Response: 82.18

Query: Also CCC(C)CC ?
Response: 63.2

Query: Would you mind doing CC1CCCCC1 as well?
Response: 100.81

---

assay: refractive index (Na D-line) (dimensionless); settings: 298.15 K; 101.33 kPa; Liquid; Standard Abbe refractometry
parameterMeasured: refractive index
Just the number, please, no unit attached.

Query: Any idea what its refractive index is? The compound is CCC(C)CC
Response: 1.3744

Query: Can you handle CCO next?
Response: 1.3598

Query: Please give the result for CC1CCCCC1 too.
Response: 1.4208

Query: // query: CC(C)(C)O
Response: 1.3851
